# Assay Details: microbe, parasite or virus in culture
# Details: Mycobacterium tuberculosis, 72 h, read-out: pIC50 (converted)
# if measured IC50 < 100 µM: yes  # else: no

Take a look at these entries with their results.
In [3]: df
Out[3]:
                                   compound  category_label
0  Cc1cnc(N2C(=O)CSC2c2ccc(N(C)C)cc2)s1 (centres undefined)             yes
1  Cc1noc(CNC(CCO)C(C)C)n1 (centres undefined)              no
2           CCCOc1ccc(CNC(=O)c2cc[nH]n2)cn1              no
3            CSc1ccccc1NC(=O)CCn1cnc(C#N)n1              no
4           O=C(NCc1ccnc(N2CCCC2)c1)c1ccsc1              no

Record `CCCOc1cc(CNC(=O)c2csnc2C)ccn1` : is its IC50 strictly below 100 µM?
no

Record `N#Cc1cccc(NCC(=O)NCc2ccco2)c1` : is its IC50 strictly below 100 µM?
no

Record O=C(Nc1cccc(Cl)c1)C1CCCN1 (centres undefined) : is its IC50 strictly below 100 µM?
no

Record C[S+]([O-])c1nncn1CCCOc1cccc(Cl)c1 (centres undefined) : is its IC50 strictly below 100 µM?
no

Record `C[C@H](c1ccc(Cl)cc1)n1c(CCN)n[nH]c1=O` : is its IC50 strictly below 100 µM?
yes
